As shown below, each of these molecules has a reported pEC50 value.
Measured on: His-tagged p53-Y220C DNA binding domain (Homo sapiens, UniProt P04637, Y220C)
Protocol details: Biochemical p53-Y220C and DNA binding assay (HTRF)
Measurement conditions: inflection point of 10 points dose titration, 4 parameter curve fit; p53-Y220C DBD 100 nM, biotinylated dsDNA 200 nM, 27 to 29° C.; read-out: HTRF IP
pEC50: −log10 of the molar value.

Molecule: CN1CC[C@@H](Nc2cccc3c2cc(/C=N\Oc2ccccc2)n3CC(F)(F)F)[C@@H](F)C1 [Example 2-5]
pEC50: < 6.00
//
Molecule: CN1CC[C@@H](Nc2cccc3c(CC(F)(F)F)c(/C=C/C(O)c4cnn(C)c4)sc23)[C@@H](F)C1 (stereo partly shown) [Example 5-5]
pEC50: 6.00 to 7.00
//
Molecule: CN1CC[C@@H](Nc2cccc3c(SC(F)(F)F)c(/C=N/OCC(C)(C)O)sc23)[C@@H](F)C1 [Example 2-32]
pEC50: 6.00 to 7.00
//
Molecule: CNC(=O)CO/N=C/c1cc2c(N[C@@H]3CCN(C)C[C@@H]3F)cccc2n1CC(F)(F)F [Example 2-7]
pEC50: < 6.00
//
Molecule: OC1(CO/N=C/c2sc3c(N[C@@H]4CNC[C@@H]4F)cccc3c2CC(F)(F)F)CCOCC1 [Example 1-20]
pEC50: 6.00 to 7.00
//
Molecule: CN1CC[C@@H](Nc2cccc3c(CC(F)(F)F)c(/C=C/CNC(=O)c4cnn(C)c4)sc23)[C@@H](F)C1 [Example 6-2]
pEC50: 6.00 to 7.00
//
Molecule: CC[C@@H](CO)O/N=C/c1sc2c(N[C@@H]3CNC[C@@H]3F)cccc2c1CC(F)(F)F [Example 1-2]
pEC50: < 6.00

* * *

Measured on: His-tagged p53-Y220C DNA binding domain (Homo sapiens, UniProt P04637, Y220C)
Protocol details: Biochemical p53-Y220C and DNA binding assay (HTRF)
Measurement conditions: inflection point of 10 points dose titration, 4 parameter curve fit; p53-Y220C DBD 100 nM, biotinylated dsDNA 200 nM, 27 to 29° C.; read-out: HTRF IP
As shown below, each of these molecules has a reported EC50 value.
Measured parameter: EC50

Molecule: O=c1cccc(CO/N=C/c2sc3c(N[C@@H]4CNC[C@@H]4F)cccc3c2CC(F)(F)F)[nH]1 [Example 2-26]
Measured on: His-tagged p53-Y220C DNA binding domain (Homo sapiens, UniProt P04637, Y220C)
Meas value: < 100 nM

Molecule: F[C@H]1CNC[C@H]1Nc1cccc2c(CC(F)(F)F)c(/C=N/OC3CCCC3)sc12 [Example 2-17]
Measured on: His-tagged p53-Y220C DNA binding domain (Homo sapiens, UniProt P04637, Y220C)
Meas value: 100 to 1000 nM

Molecule: CC[C@@H](O)CO/N=C/c1sc2c(N[C@@H]3CNC[C@@H]3F)cccc2c1CC(F)(F)F [Example 1-1]
Measured on: His-tagged p53-Y220C DNA binding domain (Homo sapiens, UniProt P04637, Y220C)
Meas value: 100 to 1000 nM

Molecule: OC1(CO/N=C/c2sc3c(N[C@@H]4CNC[C@@H]4F)cccc3c2CC(F)(F)F)CCC1 [Example 1-18]
Measured on: His-tagged p53-Y220C DNA binding domain (Homo sapiens, UniProt P04637, Y220C)
Meas value: 100 to 1000 nM

Molecule: O=C1CC(CO/N=C/c2sc3c(N[C@@H]4CNC[C@@H]4F)cccc3c2CC(F)(F)F)CN1 (stereo partly shown) [Example 3-8]
Measured on: His-tagged p53-Y220C DNA binding domain (Homo sapiens, UniProt P04637, Y220C)
Meas value: 100 to 1000 nM

Molecule: CO/N=C/c1cc2c(N[C@@H]3CCN(C)C[C@@H]3F)cccc2n1CC(F)(F)F [Example 2-2]
Measured on: His-tagged p53-Y220C DNA binding domain (Homo sapiens, UniProt P04637, Y220C)
Meas value: > 1000 nM

Molecule: CNC(=O)c1ccc(CO/N=C/c2sc3c(N[C@@H]4CCN(C)C[C@@H]4F)cccc3c2SC(F)(F)F)c(NC)c1 [Example 2-33]
Measured on: His-tagged p53-Y220C DNA binding domain (Homo sapiens, UniProt P04637, Y220C)
Meas value: < 100 nM

* * *

As shown below, each of these molecules has a reported pEC50 value.
Measured on: His-tagged p53-Y220C DNA binding domain (Homo sapiens, UniProt P04637, Y220C)
Protocol details: Biochemical p53-Y220C and DNA binding assay (HTRF)
Measurement conditions: inflection point of 10 points dose titration, 4 parameter curve fit; p53-Y220C DBD 100 nM, biotinylated dsDNA 200 nM, 27 to 29° C.; read-out: HTRF IP
pEC50: −log10 of the molar value.
Measured parameter: pEC50

Molecule: OC1CNCC1O/N=C/c1sc2c(N[C@@H]3CNC[C@@H]3F)cccc2c1CC(F)(F)F (stereo partly shown) [Example 1-36]
Measured parameter: pEC50
Meas value: 6.00 to 7.00
--
Molecule: CN1CC[C@@H](Nc2cccc3c(CC(F)(F)F)c(/C=N/OCC(C)(C)O)sc23)[C@@H](F)C1 [Example 1-39]
Measured parameter: pEC50
Meas value: > 7.00
--
Molecule: OC(/C=C/c1sc2c(N[C@@H]3CNC[C@@H]3F)cccc2c1CC(F)(F)F)c1ccccn1 (stereo partly shown) [Example 5-1]
Measured parameter: pEC50
Meas value: < 6.00
--
Molecule: CN1C[C@H](F)[C@H](Nc2cccc3c(CC(F)(F)F)c(/C=N/OCC(C)(C)O)sc23)C1 [Example 2-21]
Measured parameter: pEC50
Meas value: 6.00 to 7.00
--
Molecule: NCC(O)CO/N=C/c1sc2c(N[C@@H]3CNC[C@@H]3F)cccc2c1CC(F)(F)F (stereo partly shown) [Example 1-8]
Measured parameter: pEC50
Meas value: 6.00 to 7.00
--
Molecule: CNC(=O)c1ccc(CO/N=C/c2oc3c(N[C@@H]4CCN(C)C[C@@H]4F)cccc3c2SC(F)(F)F)c(NC)c1 [Example 2-34]
Measured parameter: pEC50
Meas value: < 6.00
--
Molecule: CN1CC[C@@H](Nc2cccc3c(CC(F)(F)F)c(/C=C/C(O)c4cccnc4)sc23)[C@@H](F)C1 (stereo partly shown) [Example 5-4]
Measured parameter: pEC50
Meas value: 6.00 to 7.00

* * *

Measured on: His-tagged p53-Y220C DNA binding domain (Homo sapiens, UniProt P04637, Y220C)
Protocol details: Biochemical p53-Y220C and DNA binding assay (HTRF)
Measurement conditions: inflection point of 10 points dose titration, 4 parameter curve fit; p53-Y220C DBD 100 nM, biotinylated dsDNA 200 nM, 27 to 29° C.; read-out: HTRF IP
As shown below, each of these molecules has a reported EC50 value.

Molecule: OC(COCc1ccccc1)CO/N=C/c1sc2c(N[C@@H]3CNC[C@@H]3F)cccc2c1CC(F)(F)F (stereo partly shown) [Example 1-34]
Measured on: His-tagged p53-Y220C DNA binding domain (Homo sapiens, UniProt P04637, Y220C)
EC50: > 1000 nM

Molecule: COCC(O)CO/N=C/c1sc2c(N[C@@H]3CNC[C@@H]3F)cccc2c1CC(F)(F)F (stereo partly shown) [Example 1-10]
Measured on: His-tagged p53-Y220C DNA binding domain (Homo sapiens, UniProt P04637, Y220C)
EC50: 100 to 1000 nM

Molecule: CN1CC[C@@H](Nc2cccc3c2cc(/C=N/OCC(=O)Nc2ccccc2)n3CC(F)(F)F)[C@@H](F)C1 [Example 2-8]
Measured on: His-tagged p53-Y220C DNA binding domain (Homo sapiens, UniProt P04637, Y220C)
EC50: 100 to 1000 nM

Molecule: CC(CO)(O/N=C/c1sc2c(N[C@@H]3CNC[C@@H]3F)cccc2c1CC(F)(F)F)c1ccccc1 (stereo partly shown) [Example 1-23]
Measured on: His-tagged p53-Y220C DNA binding domain (Homo sapiens, UniProt P04637, Y220C)
EC50: > 1000 nM

Molecule: CC(=O)N1CCC(=Cc2sc3c(N[C@@H]4CCNC[C@@H]4F)cccc3c2CC(F)(F)F)CC1 [Example 4-2]
Measured on: His-tagged p53-Y220C DNA binding domain (Homo sapiens, UniProt P04637, Y220C)
EC50: > 1000 nM

Molecule: O=C1NCC(CO/N=C/c2sc3c(N[C@@H]4CNC[C@@H]4F)cccc3c2CC(F)(F)F)O1 (stereo partly shown) [Example 2-23]
Measured on: His-tagged p53-Y220C DNA binding domain (Homo sapiens, UniProt P04637, Y220C)
EC50: 100 to 1000 nM

Molecule: OC(/C=C/c1sc2c(N[C@@H]3CNC[C@@H]3F)cccc2c1CC(F)(F)F)c1cc(Cl)n[nH]1 (stereo partly shown) [Example 5-3]
Measured on: His-tagged p53-Y220C DNA binding domain (Homo sapiens, UniProt P04637, Y220C)
EC50: 100 to 1000 nM
